- Test system: conditioned avoidance responding (lever-response)
- Measurement Description: Conditioned avoidance, lever-response (L-R)
- Type: in vivo, male CD rats
- Condition Label: Rattus norvegicus, po; 95% confidence interval in brackets; read-out: L-R AB50 (50% block in avoidance responding)
Property Measured: ED50 (mg/kg)
Answers are plain numbers, in mg/kg.

Reference set (4 entries):
c1cncc(CCCN2CCc3[nH]c4ccccc4c3C2)c1 [Example 7]: 33.1
Fc1ccc2[nH]c3c(c2c1)CN(CCc1ccccn1)CC3 [Example 2]: 37.6
Fc1ccc2[nH]c3c(c2c1)CN(CCCCc1ccncc1)CC3 [Example 1]: 15.1
Clc1ccc2[nH]c3c(c2c1)CN(CCCCc1ccncc1)CC3 [Example 8]: 36.1

Entry Fc1ccc2[nH]c3c(c2c1)CN(CCCc1cccnc1)CC3 [Example 11] : reported ED50 = ?
14.4
